The values you see were collected from patent US9765105B2.

Test system: Haemophilus parasuis
Assay: in vitro susceptibility, MIC by mini broth dilution
Type: cell-based
Quantity: MIC values, Haemophilus parasuis (ug/mi)
Numeric answer only, unit ug/mi assumed.

{"columns": ["Compound", "Target system", "MIC values, Haemophilus parasuis [ug/mi]"],
 "data": [
  ["CCCN1C[C@H](C)[C@@H](O)[C@](C)(O)[C@@H](CC)OC(=O)[C@H](C)[C@@H](O[C@H]2C[C@@](C)(OC)[C@](O)(CNC(C)CCc3ccccc3)[C@H](C)O2)[C@H](C)[C@@H](O[C@@H]2O[C@H](C)C[C@H](N(C)C)[C@H]2O)[C@](C)(O)C[C@H]1C (some centres unmarked)", "Haemophilus parasuis", 0.25]
]}

Entry CCC(CO)NC[C@]1(O)[C@H](C)O[C@@H](O[C@H]2[C@H](C)[C@@H](O[C@@H]3O[C@H](C)C[C@H](N(C)C)[C@H]3O)[C@](C)(O)C[C@@H](C)NC[C@H](C)[C@@H](O)[C@](C)(O)[C@@H](CC)OC(=O)[C@@H]2C)C[C@@]1(C)OC (some centres unmarked) — recorded MIC values, Haemophilus parasuis = 2

====

Test system: Actinobacillus pleuropneumoniae CVCC262
Test: in vitro susceptibility, MIC by mini broth dilution
Assay type: cell-based
Conditions: strain CVCC262
# label = True if MIC values, Actinobacillus pleuropneumoniae CVCC262 < 2 ug/mi else False

# count of solved cases: 5
{"columns": ["Molecule", "Label class"],
 "data": [
  ["CCC(CO)NC[C@]1(O)[C@H](C)O[C@@H](O[C@H]2[C@H](C)[C@@H](O[C@@H]3O[C@H](C)C[C@H](N(C)C)[C@H]3O)[C@](C)(O)C[C@@H](C)NC[C@H](C)[C@@H](O)[C@](C)(O)[C@@H](CC)OC(=O)[C@@H]2C)C[C@@]1(C)OC (stereo partly shown)", "True"],
  ["CCCN1C[C@H](C)[C@@H](O)[C@](C)(O)[C@@H](CC)OC(=O)[C@H](C)[C@@H](O[C@H]2C[C@@](C)(OC)[C@](O)(CNCCOCCO)[C@H](C)O2)[C@H](C)[C@@H](O[C@@H]2O[C@H](C)C[C@H](N(C)C)[C@H]2O)[C@](C)(O)C[C@H]1C", "True"],
  ["CCCN1C[C@H](C)[C@@H](O)[C@](C)(O)[C@@H](CC)OC(=O)[C@H](C)[C@@H](O[C@H]2C[C@@](C)(OC)[C@](O)(CNC(=O)C(F)(F)F)[C@H](C)O2)[C@H](C)[C@@H](O[C@@H]2O[C@H](C)C[C@H](N(C)C)[C@H]2O)[C@](C)(O)C[C@H]1C [syzx-215]", "True"],
  ["CCC1OC(=O)C(C)C(OC2CC(C)(OC)C(O)(CNc3ccccc3)C(C)O2)C(C)C(OC2OC(C)CC(N(C)C)C2O)C(C)(O)CC(C)NCC(C)C(O)C1(C)O (stereo not shown)", "False"],
  ["CCCN1C[C@H](C)[C@@H](O)[C@](C)(O)[C@@H](CC)OC(=O)[C@H](C)[C@@H](O[C@H]2C[C@@](C)(OC)[C@](O)(CNN3CCOCC3)[C@H](C)O2)[C@H](C)[C@@H](O[C@@H]2O[C@H](C)C[C@H](N(C)C)[C@H]2O)[C@](C)(O)C[C@H]1C", "True"]
]}

I'd appreciate it if you could check whether CC[C@H]1OC(=O)[C@H](C)[C@@H](O[C@H]2C[C@@](C)(OC)[C@](O)(CNCCCC(OC)OC)[C@H](C)O2)[C@H](C)[C@@H](O[C@@H]2O[C@H](C)C[C@H](N(C)C)[C@H]2O)[C@](C)(O)C[C@@H](C)NC[C@H](C)[C@@H](O)[C@]1(C)O has MIC values, Actinobacillus pleuropneumoniae CVCC262 smaller than 2 ug/mi.
True

I'd appreciate it if you could check whether CC[C@H]1OC(=O)[C@H](C)[C@@H](O[C@H]2C[C@@](C)(OC)[C@](O)(CNc3ccc(Cl)cc3C)[C@H](C)O2)[C@H](C)[C@@H](O[C@@H]2O[C@H](C)C[C@H](N(C)C)[C@H]2O)[C@](C)(O)C[C@@H](C)NC[C@H](C)[C@@H](O)[C@]1(C)O has MIC values, Actinobacillus pleuropneumoniae CVCC262 smaller than 2 ug/mi.
False

I'd appreciate it if you could check whether CC[C@H]1OC(=O)[C@H](C)[C@@H](O[C@H]2C[C@@](C)(OC)[C@](O)(CNc3ccc4ncccc4c3)[C@H](C)O2)[C@H](C)[C@@H](O[C@@H]2O[C@H](C)C[C@H](N(C)C)[C@H]2O)[C@](C)(O)C[C@@H](C)NC[C@H](C)[C@@H](O)[C@]1(C)O has MIC values, Actinobacillus pleuropneumoniae CVCC262 smaller than 2 ug/mi.
False

I'd appreciate it if you could check whether CCCNC[C@]1(O)[C@H](C)O[C@@H](O[C@H]2[C@H](C)[C@@H](O[C@@H]3O[C@H](C)C[C@H](N(C)C)[C@H]3O)[C@](C)(O)C[C@@H](C)NC[C@H](C)[C@@H](O)[C@](C)(O)[C@@H](CC)OC(=O)[C@@H]2C)C[C@@]1(C)OC has MIC values, Actinobacillus pleuropneumoniae CVCC262 smaller than 2 ug/mi.
True

I'd appreciate it if you could check whether CCCN1C[C@H](C)[C@@H](O)[C@](C)(O)[C@@H](CC)OC(=O)[C@H](C)[C@@H](O[C@H]2C[C@@](C)(OC)[C@](O)(CNCc3cnc(C)cn3)[C@H](C)O2)[C@H](C)[C@@H](O[C@@H]2O[C@H](C)C[C@H](N(C)C)[C@H]2O)[C@](C)(O)C[C@H]1C has MIC values, Actinobacillus pleuropneumoniae CVCC262 smaller than 2 ug/mi.
True

I'd appreciate it if you could check whether CC[C@H]1OC(=O)[C@H](C)[C@H](O[C@H]2C[C@@](C)(OC)[C@](O)(CNCCc3ccncc3)[C@H](C)O2)[C@H](C)[C@@H](O[C@@H]2O[C@H](C)C[C@H](N(C)C)[C@H]2O)[C@](C)(O)C[C@@H](C)NC[C@H](C)[C@@H](O)[C@]1(C)O has MIC values, Actinobacillus pleuropneumoniae CVCC262 smaller than 2 ug/mi.
True

I'd appreciate it if you could check whether CCCN1C[C@H](C)[C@@H](O)[C@](C)(O)[C@@H](CC)OC(=O)[C@H](C)[C@@H](O[C@H]2C[C@@](C)(OC)[C@](O)(CNCCCN3CCOCC3)[C@H](C)O2)[C@H](C)[C@@H](O[C@@H]2O[C@H](C)C[C@H](N(C)C)[C@H]2O)[C@](C)(O)C[C@H]1C [syzx-188] has MIC values, Actinobacillus pleuropneumoniae CVCC262 smaller than 2 ug/mi.
True

I'd appreciate it if you could check whether CCCN1C[C@H](C)[C@@H](O)[C@](C)(O)[C@@H](CC)OC(=O)[C@H](C)[C@@H](O[C@H]2C[C@@](C)(OC)[C@](O)(CNCc3ccc([N+](=O)[O-])cc3)[C@H](C)O2)[C@H](C)[C@@H](O[C@@H]2O[C@H](C)C[C@H](N(C)C)[C@H]2O)[C@](C)(O)C[C@H]1C has MIC values, Actinobacillus pleuropneumoniae CVCC262 smaller than 2 ug/mi.
True

I'd appreciate it if you could check whether CC[C@H]1OC(=O)[C@H](C)[C@@H](O[C@H]2C[C@@](C)(OC)[C@](O)(CNCc3ccccc3OC)[C@H](C)O2)[C@H](C)[C@@H](O[C@@H]2O[C@H](C)C[C@H](N(C)C)[C@H]2O)[C@](C)(O)C[C@@H](C)NC[C@H](C)[C@@H](O)[C@]1(C)O has MIC values, Actinobacillus pleuropneumoniae CVCC262 smaller than 2 ug/mi.
False

I'd appreciate it if you could check whether CC[C@H]1OC(=O)[C@H](C)[C@@H](O[C@H]2C[C@@](C)(OC)[C@](O)(CNCC3CCNCC3)[C@H](C)O2)[C@H](C)[C@@H](O[C@@H]2O[C@H](C)C[C@H](N(C)C)[C@H]2O)[C@](C)(O)C[C@@H](C)NC[C@H](C)[C@@H](O)[C@]1(C)O has MIC values, Actinobacillus pleuropneumoniae CVCC262 smaller than 2 ug/mi.
False

====

Test system: Pasteurella multocida CVCC399
Test: in vitro susceptibility, MIC by mini broth dilution
Format: cell-based
Conditions: strain CVCC399
Quantity: MIC values, Pasteurella multocida CVCC399 (ug/mi)
Numeric answer only, unit ug/mi assumed.

{"columns": ["Compound", "Endpoint value"],
 "data": [
  ["CCCN1C[C@H](C)[C@@H](O)[C@](C)(O)[C@@H](CC)OC(=O)[C@H](C)[C@@H](O[C@H]2C[C@@](C)(OC)[C@](O)(CNCc3cccc(OC)c3)[C@H](C)O2)[C@H](C)[C@@H](O[C@@H]2O[C@H](C)C[C@H](N(C)C)[C@H]2O)[C@](C)(O)C[C@H]1C [syzx-127]", 8]
]}

Below: the item to evaluate.
Tested on Pasteurella multocida CVCC399, the item CCC(NC[C@]1(O)[C@H](C)O[C@@H](O[C@H]2[C@H](C)[C@@H](O[C@@H]3O[C@H](C)C[C@H](N(C)C)[C@H]3O)[C@](C)(O)C[C@@H](C)NC[C@H](C)[C@@H](O)[C@](C)(O)[C@@H](CC)OC(=O)[C@@H]2C)C[C@@]1(C)OC)C(=O)O (some centres unmarked) [syzx-41] showed MIC values, Pasteurella multocida CVCC399 equal to 4
